B1: KLHL14 (parent)
chain: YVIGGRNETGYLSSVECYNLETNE

# Variants of: B1
# protocol: protein stability index of a GFP-peptide fusion (GPS, HEK-293T) (PSI 1-6); higher = more stable;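 note: lentivirally expressed fusions sorted by FACS into six bins by GFP to DsRed ratio, PSI derived from sequencing read proportions per bin multiplied by bin number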
# protocol_conditions: c terminus: a fixed tail appended
Quick list: protein stability index per entry.

monomer_sequence	measured_attribute	reading
YVIGGRNETGYLSSVECYNLETIE	protein stability index	1.56
YVIGGRNETGYLVSVECYNLETNE	protein stability index	1.89

Query: protein stability index; subject: YVIGGRNETGYLSSIECYNLETNE
1.83

Query: protein stability index; subject: YVIGGRNETGYLSSVSCYNLETNE
2.18
